Tested on: ID8 cells
Assay: SRB proliferation assay (48 h) on ID8 cells
Format: cell-based
Conditions: SRB, nonlinear regression, N/A = could not be calculated/had no effect
READOUT_KIND: ID8 Hill Slope

Requested read-out ID8 Hill Slope, target or system ID8 cells, entry N.N.[Cl][Pt][Cl] [Cisplatin, cisplatin, reference compound] 0.99

Requested read-out ID8 Hill Slope, target or system ID8 cells, entry Cc1ccc(C(C)C)cc1.F[P-](F)(F)(F)(F)F.O=C(OCC1OC(c2n[n+]3c(o2)-c2cccc[n+]2[Ru-]3[Cl])C(OC(=O)c2ccccc2)C(OC(=O)c2ccccc2)C1OC(=O)c1ccccc1)c1ccccc1 (mixture of isomers) 3.04

Requested read-out ID8 Hill Slope, target or system ID8 cells, entry Cc1ccc(C(C)C)cc1.F[P-](F)(F)(F)(F)F.O=C(OCC1OC(c2nnc(-c3ccccn3)o2)C(OC(=O)c2ccccc2)C(OC(=O)c2ccccc2)C1OC(=O)c1ccccc1)c1ccccc1.[Cl][Ru+] (mixture of isomers) 3.31

Requested read-out ID8 Hill Slope, target or system ID8 cells, entry Cc1ccc(C(C)C)cc1.F[P-](F)(F)(F)(F)F.O=C(OC1COC(c2n[n+]3c(o2)-c2cccc[n+]2[Ru-]3[Cl])C(OC(=O)c2ccccc2)C1OC(=O)c1ccccc1)c1ccccc1 (mixture of isomers) 3.59

Requested read-out ID8 Hill Slope, target or system ID8 cells, entry Cc1ccc(C(C)C)cc1.F[P-](F)(F)(F)(F)F.O=C(OCC1OC(n2cc(-c3ccccn3)nn2)C(OC(=O)c2ccccc2)C(OC(=O)c2ccccc2)C1OC(=O)c1ccccc1)c1ccccc1.[Cl][Ru+] (mixture of isomers) 2.50

Requested read-out ID8 Hill Slope, target or system ID8 cells, entry N.N.O=C([O-])C1(C(=O)[O-])CCC1.[Pt+2] [Carboplatin, carboplatin, reference compound] 0.62

Requested read-out ID8 Hill Slope, target or system ID8 cells, entry O=C1[O][Pt]2([NH][C@@H]3CCCC[C@H]3[NH]2)[O]C1=O [Oxaliplatin, oxaliplatin, reference compound] 1.58

Hey, just so you know, these numbers are from paper PMC8508960.
